# Tested on: UACC-257 melanoma
# methodDescription: NCI tumour cell line growth inhibition, 48 h
measuredMetric: GI50

> print(dat)
                                   compound  measuredmetric  testresult
1  COc1cc(N2CCN(C(C)C)CC2)ccc1Nc1nc(Nc2ccc(F)cc2C(=O)NCC(O)CO)c2cc[nH]c2n1 (stereo not given)            GI50     2870 nM
2        Cc1ccc(/C=C(/C#N)n2nnc3ncccc32)cc1            GI50     4240 nM
3  CN1CCN(Cc2ccc(NC(=O)c3cncc(C#Cc4c(N)ncc5c(F)cccc45)c3)cc2C(F)(F)F)CC1            GI50      854 nM
4            O=C1Nc2ccc(O)cc2/C1=C\c1ccncc1            GI50    13200 nM
5  O=C(NCCCl)NCCN1c2nc3ccccc3cc2Sc2cc3ccccc3nc21            GI50     1370 nM
